Target: UniProtKB P56450
Sequence (P56450 whole entry): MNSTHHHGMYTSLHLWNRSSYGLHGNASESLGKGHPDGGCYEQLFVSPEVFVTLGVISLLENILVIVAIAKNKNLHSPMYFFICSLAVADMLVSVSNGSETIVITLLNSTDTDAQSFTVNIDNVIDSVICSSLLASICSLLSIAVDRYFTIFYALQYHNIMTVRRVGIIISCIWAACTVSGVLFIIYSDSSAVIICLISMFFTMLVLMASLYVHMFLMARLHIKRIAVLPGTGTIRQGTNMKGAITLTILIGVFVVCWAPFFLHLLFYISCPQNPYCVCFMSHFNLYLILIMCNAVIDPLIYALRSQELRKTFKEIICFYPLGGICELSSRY
Assay: ChEBML_104255
readout label: EC50 (µM)
// return numeric value only (unit: µM, not printed)

Just so you know, measured EC50 for CC(=O)N[C@@H](Cc1cnc[nH]1)C(=O)N[C@H](Cc1ccccc1)C(=O)N[C@@H](CCCN=C(N)N)C(=O)N[C@@H](Cc1c[nH]c2ccccc12)C(N)=O came out at 0.017
